Values from patent US12605411B2

Experiment: CoQ10 absorption in plasma after single dose, clinical study
Format: in vivo, human
Conditions: human, plasma, oral, 2 soft gels; 6 hours after single dose
Experimental: The purpose of the study was to investigate compare the CoQ10 level of absorption in the plasma of a phospholipid krill oil+CoQ10 product to a comparator CoQ10-product (without any krill oil). Absorption levels of CoQ10 in plasma were measured at time (T)=0, 2, 4, 6 and 8 hours after the single-dose (2 soft gels) intake of the study products. A 7-day minimum washout period between the two doses was specified. A total of 13 subjects successfully completed the study.
reported.endpoint: concentration at 6 h (ng/mL)
Number in ng/mL, nothing else.

Any idea what concentration at 6 h was measured for COC1=C(OC)C(=O)C(C/C=C(\C)CC/C=C(\C)CC/C=C(\C)CC/C=C(\C)CC/C=C(\C)CC/C=C(\C)CC/C=C(\C)CC/C=C(\C)CC/C=C(\C)CCC=C(C)C)=C(C)C1=O [CoQ10, Coenzyme Q10] ?
10100

---

assay: CoQ10 absorption in plasma after single dose, clinical study; type: in vivo, human; settings: human, plasma, oral, 2 soft gels; 8 hours after single dose
reported.endpoint: concentration at 8 h (ng/mL)
Number in ng/mL, nothing else.

Any idea what concentration at 8 h was measured for COC1=C(OC)C(=O)C(C/C=C(\C)CC/C=C(\C)CC/C=C(\C)CC/C=C(\C)CC/C=C(\C)CC/C=C(\C)CC/C=C(\C)CC/C=C(\C)CC/C=C(\C)CCC=C(C)C)=C(C)C1=O ?
10500
